Assay: Selectivity index, ratio of IC50 for rat L6 cells to IC50 for chloroquine and pyrimethamine-resistant Plasmodium falciparum K1
Assay type: toxicity, cell-based
Conditions: L6 cells (versus Plasmodium falciparum K1), read-out: Ratio IC50
Recorded selectivity ratio for the following molecules
Output: the number by itself.

>>> quantitative_readout("CN1CCN(C23CCNC(C(c4ccccc4)C2)C(c2ccccc2)C3)CC1 (racemic)")
64.6

Here is the next item to consider.
Recorded selectivity ratio of CN1CCN(CCCC(=O)OC2CC3(N(C)C)CC(c4ccccc4)C2C(c2ccccc2)C3)CC1 (racemic) , please.
82.7

###

Recorded IC50 for the following compounds
System: Trypanosoma brucei rhodesiense
Experiment: Antitrypanosomal activity against Trypanosoma brucei rhodesiense STIB900 bloodstream forms after 72 hrs by serial dilution Alamar blue assay
Format: functional, organism-based
Conditions: STIB900, 72 h
Answer shape: numeric part, then the unit.

Below: 5 compounds and their reported IC50.
>>> result("c1ccc(C2CC3(N4CCCCC4)CCN(CCCN4CCCCC4)C2C(c2ccccc2)C3)cc1 (centres undefined)")
"18.4 µM"
>>> result("CN1CCN(CCN2CCC3(N4CCCCC4)CC(c4ccccc4)C2C(c2ccccc2)C3)CC1 (racemic)")
"43.7 µM"
>>> result("CN1CCN(CCC(=O)OC2CC3(N(C)C)CC(c4ccccc4)C2C(c2ccccc2)C3)CC1 (racemic)")
"0.21 µM"
>>> result("CN1CCN(CCC(=O)NC2CC3(N4CCN(C)CC4)CC(c4ccccc4)C2C(c2ccccc2)C3)CC1 (racemic)")
"3.3 µM"
>>> result("CN1CCN(CCCN2CCC3(N(C)C)CC(c4ccccc4)C2C(c2ccccc2)C3)CC1 (racemic)")
"11.5 µM"

Recorded IC50 of CN1CCN(CCCC(=O)OC2CC3(N4CCCCC4)CC(c4ccccc4)C2C(c2ccccc2)C3)CC1 (racemic) , please.
0.16 µM

Recorded IC50 of CN1CCN(CCCC(=O)OC2CC3(N4CCCC4)CC(c4ccccc4)C2C(c2ccccc2)C3)CC1 (racemic) , please.
0.15 µM

Recorded IC50 of CN1CCN(CCCN2CCC3(N4CCCC4)CC(c4ccccc4)C2C(c2ccccc2)C3)CC1 (racemic) , please.
6.99 µM

Recorded IC50 of CN1CCN(CC(=O)NC2CC3(N4CCN(C)CC4)CC(c4ccccc4)C2C(c2ccccc2)C3)CC1 (racemic) , please.
2.06 µM

Recorded IC50 of CN1CCN(CCC(=O)N2CCC3(N4CCN(C)CC4)CC(c4ccccc4)C2C(c2ccccc2)C3)CC1 (racemic) , please.
3.62 µM

Recorded IC50 of CN1CCN(CCC(=O)OC2CC3(N4CCCC4)CC(c4ccccc4)C2C(c2ccccc2)C3)CC1 (racemic) , please.
0.45 µM

Recorded IC50 of CN1CCN(CCN2CCC3(N4CCCC4)CC(c4ccccc4)C2C(c2ccccc2)C3)CC1 (racemic) , please.
6.35 µM

Recorded IC50 of CN1CCN(CCCN2CCC3(N4CCN(C)CC4)CC(c4ccccc4)C2C(c2ccccc2)C3)CC1 (racemic) , please.
6.67 µM

Recorded IC50 of CN1CCN(C23CCNC(C(c4ccccc4)C2)C(c2ccccc2)C3)CC1 (racemic) , please.
0.38 µM

Recorded IC50 of CN1CCN(CCN2CCC3(N(C)C)CC(c4ccccc4)C2C(c2ccccc2)C3)CC1 (racemic) , please.
13.5 µM

Recorded IC50 of CN1CCN(CCC(=O)OC2CC3(N4CCCCC4)CC(c4ccccc4)C2C(c2ccccc2)C3)CC1 (racemic) , please.
0.087 µM

Recorded IC50 of Nc1nc(N)nc(Nc2ccc([As]3SCC(CO)S3)cc2)n1 (centres undefined) [MELARSOPROL] , please.
0.009 µM

Recorded IC50 of CN1CCN(CCCC(=O)OC2CC3(N(C)C)CC(c4ccccc4)C2C(c2ccccc2)C3)CC1 (racemic) , please.
0.08 µM

Recorded IC50 of CN1CCN(CCCN2CCC3(N4CCCCC4)CC(c4ccccc4)C2C(c2ccccc2)C3)CC1 (racemic) , please.
17.6 µM
